The reported measurements were obtained from ChEMBL document CHEMBL1157295.

System: Staphylococcus aureus
Test: Antimicrobial activity against TetK multidrug efflux pump possessing Staphylococcus aureus XU-212 by standard microdilution method
Format: functional
Reported metric: MIC (µg/mL)
Respond numerically; units are µg/mL and should not be typed.

CN(C)[C@@H]1C(O)=C(C(N)=O)C(=O)[C@@]2(O)C(O)=C3C(=O)c4c(O)cccc4[C@@](C)(O)[C@H]3C[C@@H]12    64
CCCCC[C@H]1CCCCCCCCCC(=O)O[C@@H]2[C@@H](O[C@@H]3O[C@H](C)[C@@H](O)[C@H](O)[C@H]3O)[C@H](C)O[C@@H](O[C@H]3[C@H](O[C@H]4[C@H](O1)O[C@H](C)[C@@H](O)[C@@H]4O)O[C@H](CO)[C@@H](O)[C@@H]3O)[C@@H]2OC(=O)[C@@H](C)CC    512

Query: // query MIC value for entry "CCCCC[C@H]1CCCCCCCCCC(=O)OC[C@H]2O[C@@H](O[C@H]3[C@H](O1)O[C@H](C)[C@H](O)[C@@H]3O)[C@H](O[C@@H]1O[C@@H](C)[C@H](OC(=O)[C@@H](C)CC)[C@@H](O[C@@H]3O[C@@H](C)[C@H](O)[C@@H](O)[C@H]3O)[C@H]1OC(=O)[C@@H](C)CC)[C@@H](O)[C@@H]2O"
Result: 32

Query: For the molecule "C/C=C(\C)C(=O)O[C@H]1[C@H](O)[C@@H](O)[C@H](O[C@@H]2[C@H]3OC(=O)CCCCCCCCC[C@H](CCCCC)O[C@@H]4O[C@H](C)[C@@H](O)[C@H](O)[C@H]4O[C@@H]4O[C@H](COC(=O)C(C)C)[C@@H](O)[C@H](O)[C@H]4O[C@H](O[C@H]2C)[C@@H]3OC(=O)[C@@H](C)[C@H](C)O)O[C@@H]1C" , what MIC is on record?
Result: 32

Query: Entry "C/C=C(\C)C(=O)O[C@H]1[C@H](O)[C@@H](O)[C@H](O[C@@H]2[C@H]3OC(=O)CCCCCCCCC[C@H](CCCCC)O[C@@H]4O[C@H](C)[C@@H](O)[C@H](O)[C@H]4O[C@@H]4O[C@H](COC(=O)[C@@H](C)CC)[C@@H](O)[C@H](O)[C@H]4O[C@H](O[C@H]2C)[C@@H]3OC(=O)[C@@H](C)[C@H](C)O)O[C@@H]1C" : reported MIC = ?
Result: 512

Query: MIC; subject: "CCCCC[C@H]1CCCCCCCCCC(=O)O[C@@H]2[C@@H](O[C@@H]3O[C@H](C)[C@@H](OC(=O)[C@@H](C)CC)[C@H](O)[C@H]3O)[C@H](C)O[C@@H](O[C@H]3[C@H](O[C@H]4[C@H](O1)O[C@H](C)[C@@H](O)[C@@H]4O)O[C@H](COC(=O)[C@@H](C)CC)[C@@H](O)[C@@H]3O)[C@@H]2OC(=O)[C@H](C)[C@@H](C)O"
Result: 64

Query: Entry under review: "C/C=C(\C)C(=O)O[C@H]1[C@H](O)[C@@H](O)[C@H](O[C@@H]2[C@H]3OC(=O)CCCCCCCCC[C@H](CCCCC)O[C@@H]4O[C@H](C)[C@@H](O)[C@H](O)[C@H]4O[C@@H]4O[C@H](COC(=O)C(C)C)[C@@H](O)[C@H](O)[C@H]4O[C@H](O[C@H]2C)[C@@H]3OC(=O)[C@H](C)[C@@H](C)O)O[C@@H]1C" . Reported MIC?
Result: 32

Query: Using the record for "C/C=C(\C)C(=O)O[C@H]1[C@H](O)[C@@H](O)[C@H](O[C@@H]2[C@H]3OC(=O)CCCCCCCCC[C@H](CCCCC)O[C@@H]4O[C@H](C)[C@@H](O)[C@H](O)[C@H]4O[C@@H]4O[C@H](COC(=O)[C@@H](C)CC)[C@@H](O)[C@H](O)[C@H]4O[C@H](O[C@H]2C)[C@@H]3OC(=O)[C@H](C)[C@@H](C)O)O[C@@H]1C" , report its MIC.
Result: 64
